Provenance of the data: paper PMC3870591

assay.system: DQA1*01:01; DQB1*05:01 (Homo sapiens, UniProt P01909+P01920, A157S/A45G/A70V/C70R/D89V/E106S/E118A/E183D/E77G/F83G/G63E/H151Q/H199R/H252R/H253Q/I129T/I235V/I88M/INS77G/K197Q/L107V/L117V/L119Y/L178F/L71W/L74F/L85Q/L91A/L98M/M46L/N214S/P87R/Q116E/Q256R/Q57E/Q76K/R102G/R240Q/R75S/R78G/S102Y/S185I/S41F/S97I/T103A/T109R/T121G/T122I/T172A/T86R/V148I/V68A/V73E/Y34C/Y58G/Y62H)
test.method.notes: REVEAL MHC-peptide binding assay
condition.summary: HLA DQB1*05:01; percentage of signal of positive control peptide
For each record, write down the corresponding Binding score.
Give just the number in %; leave the unit off.

Inquiry: Give its Binding score value. Item: 49: tropomyosin-derived 15-mer ENQLKEARFLAEEAD [Peptide 49]
Reply text: 19.65

Inquiry: Give its Binding score value. Item: 2: tropomyosin-derived 15-mer IKKKMQAMKLEKDNA [Peptide 2]
Reply text: 13.94

Inquiry: Give its Binding score value. Item: 34: tropomyosin-derived 15-mer ERSEERLNTATTKLA [Peptide 34]
Reply text: 22.67

Inquiry: Give its Binding score value. Item: 74: tropomyosin-derived 15-mer AYKEQIKTLTNKLKA [Peptide 74]
Reply text: 14.73

====

assay.system: DRB1*03:01 (Homo sapiens, UniProt P01903+P01911, A100K/A102G/A103R/A169T/F55Y/I96L/K41T/L162R/M171V/P40S/Q125H/Q178H/Q39Y/R42S/S66N/T106N/T262R/W38E/Y61H)
test.method.notes: REVEAL MHC-peptide binding assay
condition.summary: HLA DRB1*03:01; percentage of signal of positive control peptide
The label depends only on Binding score: satisfied if it is at least 30%, not satisfied if it is smaller.

Inquiry: Reported Binding score at or above 30%? 57: tropomyosin-derived 15-mer LAMVEADLERAEERA [Peptide 57]
Reply text: not satisfied

Inquiry: Reported Binding score at or above 30%? 51: tropomyosin-derived 15-mer ARFLAEEADRKYDEV [Peptide 51]
Reply text: not satisfied

Inquiry: Reported Binding score at or above 30%? 63: tropomyosin-derived 15-mer ESKIVELEEELRVVG [Peptide 63]
Reply text: not satisfied

Inquiry: Reported Binding score at or above 30%? 5: tropomyosin-derived 15-mer LEKDNAMDRADTLEQ [Peptide 5]
Reply text: satisfied

Inquiry: Reported Binding score at or above 30%? 24: tropomyosin-derived 15-mer QLVEKDKALSNAEGE [Peptide 24]
Reply text: satisfied

Inquiry: Reported Binding score at or above 30%? 4: tropomyosin-derived 15-mer AMKLEKDNAMDRADT [Peptide 4]
Reply text: satisfied

====

assay.system: DRB1*04:01 (Homo sapiens, UniProt P01903+P01911, A100K/A169T/F76Y/I96L/K127E/L162R/M171V/N62H/P40V/Q125Y/R42H/S133A/S149N/S66Y/V115G/V209L/W38E)
test.method.notes: REVEAL MHC-peptide binding assay
condition.summary: HLA DRB1*04:01; percentage of signal of positive control peptide
Marks after values point to notes of the source that are not given here.
For each record, write down the corresponding Binding score.

Inquiry: Give its Binding score value. Item: 36: tropomyosin-derived 15-mer LNTATTKLAEASQAA [Peptide 36]
Reply text: 43.87%

Inquiry: Give its Binding score value. Item: 3: tropomyosin-derived 15-mer KMQAMKLEKDNAMDR [Peptide 3]
Reply text: 23.52%

Inquiry: Give its Binding score value. Item: 74: tropomyosin-derived 15-mer AYKEQIKTLTNKLKA [Peptide 74]
Reply text: 41.94%

Inquiry: Give its Binding score value. Item: 7: tropomyosin-derived 15-mer MDRADTLEQQNKEAN [Peptide 7]
Reply text: 22.16%

Inquiry: Give its Binding score value. Item: 66: tropomyosin-derived 15-mer ELRVVGNNLKSLEVS [Peptide 66]
Reply text: 25.05%

Inquiry: Give its Binding score value. Item: 24: tropomyosin-derived 15-mer QLVEKDKALSNAEGE [Peptide 24]
Reply text: 20.62%

Inquiry: Give its Binding score value. Item: 18: tropomyosin-derived 15-mer QLENDLDQVQESLLK [Peptide 18]
Reply text: 9.10 ^a %

Inquiry: Give its Binding score value. Item: 51: tropomyosin-derived 15-mer ARFLAEEADRKYDEV [Peptide 51]
Reply text: 11.06%

====

assay.system: DRB1*11:01 (Homo sapiens, UniProt P01903+P01911, A100R/A169T/A87E/I96F/K41T/L162R/M171V/P40S/Q125H/Q178H/Q39Y/Q99D/R42S/S66Y/T262R/V115G/W38E)
test.method.notes: REVEAL MHC-peptide binding assay
condition.summary: HLA DRB1*11:01; percentage of signal of positive control peptide
endpoint.name: Binding score (%)
Give just the number in %; leave the unit off.

Inquiry: Give its Binding score value. Item: 29: tropomyosin-derived 15-mer VAALNRRIQLLEEDL [Peptide 29]
Reply text: 22.35

Inquiry: Give its Binding score value. Item: 1: tropomyosin-derived 15-mer MDAIKKKMQAMKLEK [Peptide 1]
Reply text: 18.74

Inquiry: Give its Binding score value. Item: 74: tropomyosin-derived 15-mer AYKEQIKTLTNKLKA [Peptide 74]
Reply text: 10.94

Inquiry: Give its Binding score value. Item: 53: tropomyosin-derived 15-mer EADRKYDEVARKLAM [Peptide 53]
Reply text: 13.67

Inquiry: Give its Binding score value. Item: 15: tropomyosin-derived 15-mer VHNLQKRMQQLENDL [Peptide 15]
Reply text: 11.01
